STUDY TARGET: T1, human MSLN-hFc protein (Acro, Cat. No. MSN-H5253) (human, UniProt Q13421 296-580)
T1 construct: the method names the coated protein as human MSLN-hFc (Acro); also called human MSLN full-length protein
T1 sequence (Q13421 other isoform, or with tags, fused parts or gaps limits assumed): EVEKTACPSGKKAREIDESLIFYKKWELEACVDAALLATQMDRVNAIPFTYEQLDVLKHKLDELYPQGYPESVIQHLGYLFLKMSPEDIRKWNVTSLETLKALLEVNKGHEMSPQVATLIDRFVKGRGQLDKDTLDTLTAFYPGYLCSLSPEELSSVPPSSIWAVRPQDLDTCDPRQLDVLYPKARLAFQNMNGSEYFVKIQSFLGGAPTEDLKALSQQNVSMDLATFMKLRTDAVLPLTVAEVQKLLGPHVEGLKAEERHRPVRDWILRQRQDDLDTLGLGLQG
PROCEDURE TEXT: ELISA on coated antigen, antibody 10 nM
Recorded OD450 for the following binders

{"BINDER": "F7.33.24-H11 (scFv, not shown: small tags and cut ends, also called S009-F7.33.24 humanized antibody VH2a + VL2) scFv: EVQLVQSGAEVKKPGASVKVSCKASGYTFTSYWMHWVRQAPGQGLEWMGNVNPSNAGSNYNEKFKNRVTITVDKSASTAYMELSSLRSEDTAVYYCAPHYIGSRPGFAYWGQGTLVTVSSGGGGSGGGGSGGGGSDIVMTQTPLSLSVTPGQPASISCKASQNVGTNIAWYLQKPGQSPQALIYSASYRYSGVPDRFSGSGSGTDFTLKISRVEAEDVGVYYCQQYNSYPLTFGGGTKVEIK", "OD450 [OD450]": 2.18}
{"BINDER": "F7.33.24-H7 (scFv, not shown: small tags and cut ends, also called S009-F7.33.24 humanized antibody VH2 + VL1) scFv: EVQLVQSGAEVKKPGASVKVSCKASGYTFTSYWMHWVRQAPGQGLEWMGNVNPSNGGSNYNEKFKNRVTITVDKSASTAYMELSSLRSEDTAVYYCAPHYIGSRPGFAYWGQGTLVTVSSGGGGSGGGGSGGGGSDIVMTQSPDSLAVSLGERATINCKASQNVGTNIAWYQQKPGQSPKALIYSASYRYSGVPDRFSGSGSGTDFTLTISSLQAEDVAVYYCQQYNSYPLTFGGGTKVEIK", "OD450 [OD450]": 2.32}
{"BINDER": "F7.33.24-H12 (scFv, not shown: small tags and cut ends, also called S009-F7.33.24 humanized antibody VH2a + VL3) scFv: EVQLVQSGAEVKKPGASVKVSCKASGYTFTSYWMHWVRQAPGQGLEWMGNVNPSNAGSNYNEKFKNRVTITVDKSASTAYMELSSLRSEDTAVYYCAPHYIGSRPGFAYWGQGTLVTVSSGGGGSGGGGSGGGGSDIVMTQTPLSLSVTPGQPASISCKASQNVGTNIAWYQQKPGQSPQALIYSASYRYSGVPDRFSGSGSGTDFTLKISRVEAEDVGVYYCQQYNSYPLTFGGGTKVEIK", "OD450 [OD450]": 2.28}
